The measurements presented in this section are drawn from paper PMC9544403.

Target: UniProt:Q9UL62
Sequence (Q9UL62 1-973): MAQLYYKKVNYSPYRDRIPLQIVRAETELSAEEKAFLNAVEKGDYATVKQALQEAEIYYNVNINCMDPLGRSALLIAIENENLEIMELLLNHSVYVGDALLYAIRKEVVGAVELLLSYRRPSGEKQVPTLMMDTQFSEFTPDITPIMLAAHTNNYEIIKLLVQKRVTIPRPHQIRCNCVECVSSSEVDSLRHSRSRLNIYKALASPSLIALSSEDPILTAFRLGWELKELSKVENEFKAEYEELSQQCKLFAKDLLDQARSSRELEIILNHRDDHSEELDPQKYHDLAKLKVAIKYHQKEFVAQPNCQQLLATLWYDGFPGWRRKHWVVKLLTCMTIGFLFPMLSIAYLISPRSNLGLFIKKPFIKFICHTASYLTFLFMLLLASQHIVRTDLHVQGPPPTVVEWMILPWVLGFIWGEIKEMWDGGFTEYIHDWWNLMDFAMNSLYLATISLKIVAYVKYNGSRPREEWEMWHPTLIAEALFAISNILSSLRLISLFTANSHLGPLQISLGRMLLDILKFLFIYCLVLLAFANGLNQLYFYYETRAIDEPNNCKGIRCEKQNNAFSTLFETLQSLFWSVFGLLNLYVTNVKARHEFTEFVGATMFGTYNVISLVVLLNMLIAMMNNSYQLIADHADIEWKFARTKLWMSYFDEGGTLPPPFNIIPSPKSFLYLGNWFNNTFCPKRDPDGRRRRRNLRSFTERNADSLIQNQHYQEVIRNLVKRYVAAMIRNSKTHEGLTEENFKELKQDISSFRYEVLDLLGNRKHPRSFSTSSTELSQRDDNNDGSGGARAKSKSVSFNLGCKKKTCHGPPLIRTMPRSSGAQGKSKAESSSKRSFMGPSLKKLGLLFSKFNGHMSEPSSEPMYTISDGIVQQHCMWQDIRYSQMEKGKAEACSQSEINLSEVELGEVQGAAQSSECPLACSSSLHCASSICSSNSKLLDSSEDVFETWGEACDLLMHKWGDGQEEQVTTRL
Assay: fura-2 intracellular calcium assay, S1P-activated hTRPC5 overexpressed in HEK T-REx cells
Endpoint Label: pIC50
Answers are plain numbers, as −log10 of the molar value.

Requested field: pIC50. Item: COc1ccc(CCNC(CCc2ccc(OC)c(OC)c2)Cc2ccc(OC)c(OC)c2)cc1OC (racemic) [schwarzinicine A]
4.72
